# Tested on: TRKB
# Details: concentration: 1 μM, replicates: in singlicate; n = 1
Listed compounds paired with reported %Inh

>  <Compound>
CNc1nccc(-c2c(-c3ccc(F)cc3)ncn2CCCN2CCOCC2)n1

>  <%Inh>
19%

$$$$
>  <Compound>
COc1ccc(-c2oc3ncnc(N)c3c2-c2ccc(OC)cc2)cc1

>  <%Inh>
74%

$$$$
>  <Compound>
Cc1ccc(NC(=O)c2cccc(C#N)c2)cc1-c1ccc(C(=O)Nc2ccncc2)cc1

>  <%Inh>
0%

$$$$
>  <Compound>
Cc1cc(N2CCC(NS(=O)(=O)c3ccc(F)cc3)CC2)nc(Nc2cccc(C#N)c2)n1.O=C(O)C(F)(F)F

>  <%Inh>
0%

$$$$
>  <Compound>
O=C(CCO)NCCn1ccc2ncnc(Nc3ccc(Oc4cccc(C(F)(F)F)c4)c(Cl)c3)c21

>  <%Inh>
0%

$$$$
>  <Compound>
COc1ccc(Nc2nccc(N3CCC(NC(=O)Nc4ccc5c(c4)OCO5)C3)n2)cc1 (centres unmarked)

>  <%Inh>
41%

$$$$
>  <Compound>
O=c1cc(N2CCOCC2)nc2n(Cc3cccc(Cl)c3)ccn12

>  <%Inh>
0%

$$$$
>  <Compound>
O=C(NCCCN1CCCC1=O)c1cnc(NCc2cc(Cl)ccc2Cl)nc1NC1CCNCC1

>  <%Inh>
32%

$$$$
>  <Compound>
Cc1cccc(-c2nc(Nc3ccc4[nH]nnc4c3)c3ccccc3n2)n1

>  <%Inh>
0%

$$$$
>  <Compound>
FC(F)(F)c1ccc(-c2nn3ncccc3c2-c2ccnc(Nc3cccc(C(F)(F)F)c3)n2)cc1

>  <%Inh>
0%

$$$$
>  <Compound>
COc1ccc(NC(=O)Nc2ccc(C)c(-c3ccc(C(=O)Nc4ccncc4)cc3)c2)cc1

>  <%Inh>
0%

$$$$
>  <Compound>
Nc1nc(-c2ccccn2)c(-c2ccnc3ccccc23)s1

>  <%Inh>
0%

$$$$
>  <Compound>
COc1cc2c(Nc3cccc(NC(=O)c4ccccc4)c3)ncnc2cc1OCCCN1CCOCC1

>  <%Inh>
0%

$$$$
>  <Compound>
COC(=O)c1cccc(NC(=O)NCCNc2ccnc(Nc3ccc(F)cc3)n2)c1

>  <%Inh>
0%

$$$$
>  <Compound>
Nc1nc(-c2ccc3c(N)n[nH]c3c2)cc(N2CCCCC2)n1

>  <%Inh>
0%

$$$$
>  <Compound>
Nc1nc(-c2ccc3c(N)n[nH]c3c2)cc(N2CCC[C@@H](C(=O)Nc3ccccc3)C2)n1.O=C(O)C(F)(F)F.O=C(O)C(F)(F)F

>  <%Inh>
0%

$$$$
>  <Compound>
CC(C)(C)OC(=O)NC1CCCN(c2cc(-c3ccc4c(N)n[nH]c4c3)nc(N)n2)C1 (centres unmarked)

>  <%Inh>
0%

$$$$

###

# Test system: LTK;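 note: kd values determined as follow-up on hits from a single-replicate KINOMEscan panel screen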
pKd: −log10 of the molar value.
Listed molecules paired with reported pKd

>  <Molecule>
CCCc1ccc(S(=O)(=O)NC2CCN(c3ccnc(Nc4ccc(OC)cc4)n3)C2)cc1 (centres unmarked) [GSK1379737]

>  <Modifier>
=

>  <pKd>
5.06

$$$$
>  <Molecule>
Oc1ccc2ncnc(Nc3ccc(OCc4ccccc4)cc3)c2c1 [GI262866]

>  <Modifier>
<

>  <pKd>
5.00

$$$$

###

Listed molecules paired with reported %Inh
# Tested on: NEK7
# Details: concentration: 1 μM, replicates: in singlicate; n = 1

>  <Molecule>
COc1ccc(NC(=O)Nc2ccc(C)c(-c3ccc(C(=O)Nc4ccncc4)cc3)c2)cc1

>  <%Inh, %>
0

$$$$
>  <Molecule>
O=C(Nc1ccccc1)Nc1ccc(Oc2ccc3nccn3n2)cc1

>  <%Inh, %>
0

$$$$
>  <Molecule>
CCc1nc(-c2cccc(C)c2)c(-c2ccnc(NC(=O)c3ccccc3)c2)s1

>  <%Inh, %>
16

$$$$
>  <Molecule>
OCCOCCn1ccc2ncnc(Nc3ccc(Oc4cccc(Cl)c4)c(Cl)c3)c21

>  <%Inh, %>
0

$$$$
>  <Molecule>
COc1ccc(NC(=O)c2ccc(-c3cc(-c4nnc(C)o4)ccc3C)cc2)cc1

>  <%Inh, %>
0

$$$$
>  <Molecule>
Cl.Cl.c1ccc(-c2cc3ccncc3cc2OC2CCNCC2)cc1

>  <%Inh, %>
4

$$$$
>  <Molecule>
CC(C)N1CCC(n2cnc(-c3ccc(F)cc3)c2-c2ccnc(N)n2)CC1

>  <%Inh, %>
0

$$$$
>  <Molecule>
CCCc1ccc(S(=O)(=O)NC2CCN(c3ccnc(Nc4ccc(OC)cc4)n3)C2)cc1 (stereo not drawn)

>  <%Inh, %>
0

$$$$
>  <Molecule>
Cc1ccc(O)cc1Nc1cc(C(F)(F)F)nc2ccc(-c3ccncc3)cc12

>  <%Inh, %>
58

$$$$
>  <Molecule>
Fc1cccc(COc2ccc(Nc3ncnc4sc(-c5ccc[nH]5)cc34)cc2Cl)c1

>  <%Inh, %>
0

$$$$
>  <Molecule>
Cl.O=S(=O)(c1cccc(F)c1)c1ccc(Nc2ncnc3cc(Br)sc23)cc1Cl

>  <%Inh, %>
0

$$$$
>  <Molecule>
CS(=O)(=O)CCNCc1nc(-c2ccc3ncnc(Nc4ccc(OCc5cccc(F)c5)c(Cl)c4)c3c2)cs1.Cl

>  <%Inh, %>
0

$$$$
>  <Molecule>
CS(=O)(=O)CCNCc1ccc(-c2ccc3ncnc(Nc4ccc(OCc5ccccc5)c(Cl)c4)c3c2)o1.Cl

>  <%Inh, %>
0

$$$$
>  <Molecule>
COc1ccc(Nc2nccc(N3CCC(NC(=O)Nc4ccc5c(c4)OCO5)C3)n2)cc1 (stereo not drawn)

>  <%Inh, %>
3

$$$$
>  <Molecule>
Cn1ccc2ncnc(Nc3ccc(Oc4cccc(Cl)c4)c(Cl)c3)c21

>  <%Inh, %>
4

$$$$
>  <Molecule>
COc1ccc(-c2nc3n(c2-c2ccncc2)CCC3)cc1

>  <%Inh, %>
0

$$$$
>  <Molecule>
COC(=O)c1c(-c2ccccc2)c2cc(Cl)ccc2c(=O)n1Cc1ccc(S(C)(=O)=O)cc1

>  <%Inh, %>
0

$$$$
>  <Molecule>
FC(F)(F)c1ccc(-c2nn3ncccc3c2-c2ccnc(Nc3cccc(C(F)(F)F)c3)n2)cc1

>  <%Inh, %>
0

$$$$
